# System tested: H1047R PIK3CA enzyme (Homo sapiens, UniProt P42336, H1047R)
# Sequence (P42336 whole entry H1047R): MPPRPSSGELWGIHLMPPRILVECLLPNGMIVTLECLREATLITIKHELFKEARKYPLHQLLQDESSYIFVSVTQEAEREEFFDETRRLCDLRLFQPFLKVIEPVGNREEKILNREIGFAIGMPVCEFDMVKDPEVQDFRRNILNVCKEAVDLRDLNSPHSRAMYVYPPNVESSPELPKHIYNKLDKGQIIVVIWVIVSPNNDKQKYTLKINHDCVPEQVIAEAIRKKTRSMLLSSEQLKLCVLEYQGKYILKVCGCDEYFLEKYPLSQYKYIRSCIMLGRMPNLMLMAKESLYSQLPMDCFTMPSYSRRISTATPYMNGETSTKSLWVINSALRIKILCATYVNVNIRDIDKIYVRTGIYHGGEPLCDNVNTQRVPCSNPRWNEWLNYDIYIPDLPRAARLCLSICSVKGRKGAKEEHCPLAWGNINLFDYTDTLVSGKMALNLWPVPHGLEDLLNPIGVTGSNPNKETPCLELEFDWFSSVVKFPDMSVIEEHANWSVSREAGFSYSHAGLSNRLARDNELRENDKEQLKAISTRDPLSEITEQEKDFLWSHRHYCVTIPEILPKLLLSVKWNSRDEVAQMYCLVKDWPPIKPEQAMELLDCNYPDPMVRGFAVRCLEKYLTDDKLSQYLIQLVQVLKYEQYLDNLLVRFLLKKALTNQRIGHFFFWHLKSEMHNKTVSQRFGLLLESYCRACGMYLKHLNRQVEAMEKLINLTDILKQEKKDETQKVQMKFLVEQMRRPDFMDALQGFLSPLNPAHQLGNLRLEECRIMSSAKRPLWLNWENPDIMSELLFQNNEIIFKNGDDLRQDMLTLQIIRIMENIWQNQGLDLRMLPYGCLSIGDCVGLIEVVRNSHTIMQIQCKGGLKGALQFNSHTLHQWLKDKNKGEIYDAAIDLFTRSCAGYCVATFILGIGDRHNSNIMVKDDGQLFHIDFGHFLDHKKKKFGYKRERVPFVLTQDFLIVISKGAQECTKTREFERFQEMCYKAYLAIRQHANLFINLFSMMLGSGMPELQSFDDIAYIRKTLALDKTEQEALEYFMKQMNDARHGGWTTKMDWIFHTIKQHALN
# Sequence (P27986 whole entry partner): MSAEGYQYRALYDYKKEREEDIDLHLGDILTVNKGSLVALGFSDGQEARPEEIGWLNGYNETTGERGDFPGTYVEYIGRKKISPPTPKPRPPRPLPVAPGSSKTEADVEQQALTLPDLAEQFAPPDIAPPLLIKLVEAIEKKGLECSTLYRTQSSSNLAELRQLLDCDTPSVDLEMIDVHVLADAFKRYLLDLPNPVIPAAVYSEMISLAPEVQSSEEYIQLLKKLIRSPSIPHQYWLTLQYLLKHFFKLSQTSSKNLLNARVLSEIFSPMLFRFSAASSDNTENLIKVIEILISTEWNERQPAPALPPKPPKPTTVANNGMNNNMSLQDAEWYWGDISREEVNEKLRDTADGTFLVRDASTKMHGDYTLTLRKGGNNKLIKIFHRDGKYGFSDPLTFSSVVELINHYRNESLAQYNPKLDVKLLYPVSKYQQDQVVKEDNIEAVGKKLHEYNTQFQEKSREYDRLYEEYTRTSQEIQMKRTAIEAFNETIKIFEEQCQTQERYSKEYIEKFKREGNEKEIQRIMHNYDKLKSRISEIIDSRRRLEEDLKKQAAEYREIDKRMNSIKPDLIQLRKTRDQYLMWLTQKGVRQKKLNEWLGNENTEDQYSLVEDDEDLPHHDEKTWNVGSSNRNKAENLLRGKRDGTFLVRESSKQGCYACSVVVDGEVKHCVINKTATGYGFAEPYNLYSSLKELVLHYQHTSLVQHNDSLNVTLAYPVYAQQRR
# Measurement notes: ADP-Glo Biochemical PIK3CA Kinase Assay
pIC50: −log10 of the molar value.
List of pIC50 values.

| Compound | pIC50 |
| --- | --- |
| O=C(CO)Nc1cc(NC(=O)c2cc(F)cc(C(F)(F)F)c2)c2c(c1)C(=O)N[C@H]2c1cc(F)ccc1Cl | ≥ 7.00 |
| CC(C)(CN)n1cc(-c2cc(NC(=O)N3C[C@](O)(C(F)(F)F)c4cc(F)ccc43)c3c(c2)C(=O)N[C@@H]3c2cc(F)ccc2Cl)cn1 (single isomer, unassigned) | 6.00 to 6.30 |
| O=C(Nc1cc(C#CC2(O)COC2)cc2c1C(c1cc(F)ccc1Cl)NC2=O)c1cc(F)cc(C(F)(F)F)c1 (stereo not shown) | ≥ 7.00 |
| O=C1NC[C@@H](c2cc(NC(=O)c3cc(F)cc(C(F)(F)F)c3)c3c(c2)C(=O)N[C@H]3c2cc(F)ccc2Cl)O1 (single isomer, unassigned) | ≥ 7.00 |
| O=C(Nc1cccc2c1C(CN1CCCC1)NC2=O)c1cc(F)cc(C(F)(F)F)c1 (stereo not shown) | 4.00 to 5.00 |
| N#CCc1cc(NC(=O)N2C[C@@](O)(C(F)(F)F)c3cc(F)ccc32)c2c(c1)C(=O)N[C@H]2c1cc(F)ccc1Cl (single isomer, unassigned) | 5.00 to 6.00 |
| NCc1cc(NC(=O)N2C[C@](O)(C(F)F)c3cc(F)ccc32)c2c(c1)C(=O)N[C@H]2c1cc(F)ccc1Cl (single isomer, unassigned) | 5.00 to 6.00 |
| O=C(Nc1cc(-c2ccc3nc[nH]c3c2)cc2c1C(c1cc(F)ccc1Cl)NC2=O)c1cc(F)cc(C(F)(F)F)c1 (stereo not shown) | ≥ 7.00 |
| O=C(Nc1cc(-c2ccc3nnc(Cl)n3c2)cc2c1[C@H](c1cc(F)ccc1Cl)NC2=O)c1cc(F)cc(C(F)(F)F)c1 | ≥ 7.00 |
| Cc1ccccc1C1NC(=O)c2cccc(NC(=O)c3cc(F)cc(Br)c3)c21 (stereo not shown) | 6.00 to 6.30 |
| O=C(Nc1cc(O[C@@H]2COC[C@H]2O)cc2c1C(c1cc(F)ccc1Cl)NC2=O)c1cc(F)cc(C(F)(F)F)c1 (mixture of isomers) | ≥ 7.00 |
| Cc1ccccc1C1NCc2cccc(NC(=O)c3nsc4ccccc34)c21 (stereo not shown) | 5.00 to 6.00 |
| O=C1NC(c2cc(F)ccc2Cl)c2c(NC(=O)N3CCCOCC3)cc(Br)cc21 (stereo not shown) | 4.00 to 5.00 |
| O=C(Nc1cc(-c2ccc3c(c2)OCCO3)cc2c1C(c1cc(F)ccc1Cl)NC2=O)c1cc(F)cc(C(F)(F)F)c1 (stereo not shown) | 6.30 to 7.00 |
| CC(=O)Nc1cc(NC(=O)N2C[C@@](O)(C(F)(F)F)c3cc(F)ccc32)c2c(c1)C(=O)N[C@@H]2c1cc(F)ccc1Cl (single isomer, unassigned) | 5.00 to 6.00 |
| O=C(Nc1ccnc2c1C(c1ccccc1Cl)NC2=O)c1cc(F)c(F)c(Cl)c1 (stereo not shown) | 6.00 to 6.30 |
| O=C(Nc1cc(-c2ccc3ncnn3c2)cc2c1[C@H](c1cc(Cl)ccc1Cl)NC2=O)c1cc(F)cc(C(F)(F)F)c1 | 6.00 to 6.30 |
| O=C1N[C@H](c2cc(F)ccc2Cl)c2c(NC(=O)N3C[C@](O)(C(F)(F)F)c4cc(F)ccc43)ccnc21 (single isomer, unassigned) | 5.00 to 6.00 |
| CC(C)(O)c1cc(NC(=O)N2C[C@@H](O)c3ccccc32)c2c(c1)C(=O)N[C@H]2c1cc(F)ccc1Cl (single isomer, unassigned) | ≥ 7.00 |
| O=C(Nc1cc(-c2ccc(N3CCOCC3)nc2)cc2c1C(c1cc(F)ccc1Cl)NC2=O)c1cc(F)cc(C(F)(F)F)c1 (stereo not shown) | ≥ 7.00 |
| CC(=O)c1cc(NC(=O)c2cc(F)cc(C(F)(F)F)c2)c2c(c1)C(=O)NC2c1cc(F)ccc1Cl (stereo not shown) | ≥ 7.00 |
| Cc1ccccc1C1NC(=O)c2cc(C(O)CO)cc(NC(=O)c3csc4ccccc34)c21 (mixture of isomers) | ≥ 7.00 |
| COc1c(F)cc(Cl)cc1C(=O)Nc1cc(Br)cc2c1C(c1cc(F)ccc1Cl)NC2=O (stereo not shown) | 5.00 to 6.00 |
| O=C(Nc1cc(-c2cnc(-c3ncco3)nc2)cc2c1C(c1cc(F)ccc1Cl)NC2=O)c1cc(F)cc(C(F)(F)F)c1 (stereo not shown) | ≥ 7.00 |
| N#Cc1cnc2ncc(-c3cc(NC(=O)c4cc(F)cc(C(F)(F)F)c4)c4c(c3)C(=O)NC4c3cc(F)ccc3Cl)cn12 (stereo not shown) | ≥ 7.00 |

----------
List of IC50 values.
# System tested: H1047R PIK3CA enzyme (Homo sapiens, UniProt P42336, H1047R)
# Measurement notes: ADP-Glo Biochemical PIK3CA Kinase Assay

| Molecule | System tested | IC50 |
| --- | --- | --- |
| O=C(Nc1cc(-c2ccc3ncc(C(F)F)n3c2)cc2c1[C@H](c1cc(F)ccc1Cl)NC2=O)c1cc(F)cc(C(F)(F)F)c1 | H1047R PIK3CA enzyme (Homo sapiens, UniProt P42336, H1047R) | ≤ 100 nM |
| O=C1N[C@@H](c2cc(F)ccc2Cl)c2c(NC(=O)N3CC4(CC4)c4cc(F)ccc43)cc(Br)cc21 (stereo in doubt) | H1047R PIK3CA enzyme (Homo sapiens, UniProt P42336, H1047R) | ≤ 100 nM |
| O=C(Nc1cc(Br)cc2c1[C@@H](c1c(F)cccc1Cl)NC2=O)c1cc(F)cc(C(F)(F)F)c1 | H1047R PIK3CA enzyme (Homo sapiens, UniProt P42336, H1047R) | 1000 to 10000 nM |
| Nc1nn(C(=O)Nc2cccc3c2C(c2cc(F)ccc2Cl)NC3=O)c2ccccc12 (stereo not shown) | H1047R PIK3CA enzyme (Homo sapiens, UniProt P42336, H1047R) | 100 to 500 nM |
| O=C1NC(c2cc(F)ccc2Cl)c2c(NC(=S)c3cc(F)cc(C(F)(F)F)c3)cccc21 (stereo not shown) | H1047R PIK3CA enzyme (Homo sapiens, UniProt P42336, H1047R) | 500 to 1000 nM |
| CC(C)(O)Cn1cc(-c2cc(NC(=O)c3cc(F)cc(C(F)(F)F)c3)c3c(c2)C(=O)N[C@@H]3c2cc(F)ccc2Cl)cn1 | H1047R PIK3CA enzyme (Homo sapiens, UniProt P42336, H1047R) | 10000 to 100000 nM |
| N#CCc1cc(NC(=O)N2C[C@@](O)(C(F)(F)F)c3ccccc32)c2c(c1)C(=O)N[C@H]2c1cc(F)ccc1Cl (single isomer, unassigned) | H1047R PIK3CA enzyme (Homo sapiens, UniProt P42336, H1047R) | 1000 to 10000 nM |

----------
# System tested: H1047R PIK3CA enzyme (Homo sapiens, UniProt P42336, H1047R)
# Measurement notes: ADP-Glo Biochemical PIK3CA Kinase Assay
# Description: Compounds to be assayed were plated in 16 doses of 1:2 serial dilutions (20 nL volume each well) on a 1536-well plate, and the plate warmed to room temperature. […] To the well was added 1 μL of 200 μM ATP and 20 μM of diC8-PIP2 in Substrate Assay Buffer (50 mM HEPES pH7.4, 50 mM NaCl, 5 mM DTT and 0.03% CHAPS) to start the reaction, and the plate was shaken for 10 seconds, then spun briefly at 1500 rpm, and then incubated for 60 minutes at room temperature. […]
List of IC50 values.

| Compound | IC50 |
| --- | --- |
| O=C(Nc1cccc2c1C(C1CCCC(O)C1)NC2=O)c1cc(F)cc(C(F)(F)F)c1 (mixture of isomers) [Compound I-2224] | 10000 to 100000 nM |
| O=C1NC(c2cc(F)c(F)cc2Cl)c2c(NC(=O)c3nsc4ccccc34)cccc21 (centres unmarked) | ≤ 100 nM |
| N#Cc1cnn(Cc2cc(NC(=O)N3C[C@](O)(C(F)(F)F)c4cc(F)ccc43)c3c(c2)C(=O)N[C@H]3c2cc(F)ccc2Cl)c1 (single isomer, unassigned) | 500 to 1000 nM |
| O=C1NC(c2ccncc2Cl)c2c(NC(=O)c3csc4ccccc34)cccc21 (centres unmarked) | 1000 to 10000 nM |
| O=C1NC(c2cc(F)ccc2Cl)c2c1cc(-c1ccc3ncnn3c1)cc2-n1ccc2c(F)cc(C(F)(F)F)cc2c1=O (centres unmarked) | 1000 to 10000 nM |
| N#CCc1cc(NC(=O)N2C[C@](O)(C(F)(F)F)c3cc(F)ccc32)c2c(c1)C(=O)N[C@H]2c1cc(F)ccc1Cl (single isomer, unassigned) | 1000 to 10000 nM |
| CS(=O)(=O)CC(O)c1cc(NC(=O)c2cc(F)cc(Cl)c2)c2c(c1)C(=O)NC2c1cc(F)ccc1Cl (centres unmarked) | 100 to 500 nM |
| N#CC1(COc2cc(NC(=O)c3cc(F)cc(C(F)(F)F)c3)c3c(c2)C(=O)NC3c2cc(F)ccc2Cl)CC1 (centres unmarked) | ≤ 100 nM |
| Cc1ccccc1C1NC(=O)c2cccc(NC(=O)c3nsc4ccc(-c5cnn(C)c5)cc34)c21 (centres unmarked) | 1000 to 10000 nM |
| O=C(Nc1cccc2c1C(C1=C(F)CCCC1)NC2=O)c1cc(F)cc(C(F)(F)F)c1 (racemic) | 500 to 1000 nM |
| COc1cccc(C(=O)Nc2cc(Br)cc3c2C(c2cc(F)ccc2Cl)NC3=O)c1 (centres unmarked) | 10000 to 100000 nM |
| O=C(Nc1cc(-c2ccc(=O)n(C3CC3)c2)nc2c1[C@H](c1cc(F)ccc1Cl)NC2=O)c1cc(F)cc(C(F)(F)F)c1 | ≤ 100 nM |
| O=C1NC(c2cc(F)ccc2Cl)c2c(CC(=O)N3CCc4ccccc43)cc(-c3ccc4ncnn4c3)cc21 (centres unmarked) | 10000 to 100000 nM |
| C[C@@H]([C@@H]1C[C@H](O)CN1C(=O)Nc1cccc2c1[C@H](c1cc(F)ccc1Cl)NC2=O)C(F)(F)F (single isomer, unassigned) | 500 to 1000 nM |
| O=C1NC(c2cc(F)ccc2Cl)c2c(Nc3n[nH]c4ccccc34)cc(Br)cc21 (centres unmarked) | 10000 to 100000 nM |
| Cc1ccccc1-n1[nH]c(=O)c2cccc(NC(=O)c3csc4ccccc34)c21 | 500 to 1000 nM |
| CS(=O)(=O)Cc1cc(NC(=O)c2cc(F)cc(C(F)(F)F)c2)c2c(n1)C(=O)NC2c1cc(F)ccc1Cl (centres unmarked) | ≤ 100 nM |
| Cc1ccccc1C1NC(=O)c2cc(N)cc(NC(=O)c3nsc4ccccc34)c21 (centres unmarked) | ≤ 100 nM |
| C[C@@H](C#N)Cn1cc(-c2cc(NC(=O)N3C[C@H](O)c4cc(F)ccc43)c3c(c2)C(=O)N[C@H]3c2cc(F)ccc2Cl)cn1 (single isomer, unassigned) | 1000 to 10000 nM |
| CS(=O)(=O)c1ccc(-c2cc(NC(=O)c3cc(F)cc(C(F)(F)F)c3)c3c(c2)C(=O)NC3c2cc(F)ccc2Cl)cn1 (centres unmarked) | ≤ 100 nM |
| Cc1ccccc1[C@H]1NC(=O)c2cc(CO)cc(NC(=O)c3nsc4ccccc34)c21 | 1000 to 10000 nM |
| O=C(Nc1cc(-c2ccn3nncc3c2)cc2c1C(c1cc(F)ccc1Cl)NC2=O)c1cc(F)cc(C(F)(F)F)c1 (centres unmarked) | ≤ 100 nM |
| N#Cc1cccc2c1CCN2C(=O)Nc1cccc2c1C(c1cc(F)ccc1Cl)NC2=O (centres unmarked) | 10000 to 100000 nM |
| Cc1ccccc1C1NC(=O)c2cccc(NC(=O)c3nc(C)c4c(F)cc(F)cn34)c21 (centres unmarked) | 10000 to 100000 nM |
| N#C[C@H]1C[C@@H](c2cc(NC(=O)c3cc(F)cc(C(F)(F)F)c3)c3c(c2)C(=O)N[C@@H]3c2cc(F)ccc2Cl)C1 (single isomer, unassigned) | ≤ 100 nM |
| [2H]C1([2H])N(C(=O)Nc2cccc3c2[C@@H](c2cc(F)ccc2Cl)NC3=O)c2ccc(F)cc2[C@]1(O)C(F)(F)F (single isomer, unassigned) | 1000 to 10000 nM |
